study.target: one or more of HDAC-4, HDAC-5, HDAC-6, HDAC-7, HDAC-8, HDAC-9, HDAC-10 and HDAC-11
assay: Inhibition of histone deacetylase enzymatic activity (summary statement over isoforms)
Assay type: biochemical
cond: Table 3, selected examples; HDAC isoform not given
Parameter IC50: see the listing below.

// known answers, use as guide
O=C(NO)C(c1ccccc1)N1CCN(C(=O)OCc2ccccc2)CC1 (centres unmarked) [Compound 5-61] = 1000 to 15000 nM
O=C(NO)C(c1ccccc1)c1ccc(N2CCNCC2)cc1 (centres unmarked) [Compound 5-86] = < 1000 nM

O=C(NO)C(c1ccc2c(c1)CCO2)c1ccc2c(c1)CCO2 [Compound 1-8] yielded IC50 of < 1000 nM

Cc1ccccc1OC(C(=O)NO)c1ccccc1 (centres unmarked) [Compound 7-1] yielded IC50 of 1000 to 15000 nM

Cc1cccc(C(=O)N2CCCN(C(C(=O)NO)c3ccccc3)CC2)c1 (centres unmarked) [Compound 2-29] yielded IC50 of 1000 to 15000 nM

O=C(Cc1ccccc1)Nc1ccc(C(C(=O)NO)c2ccccc2)cc1 (centres unmarked) [Compound 2-59] yielded IC50 of < 1000 nM

O=C(NO)C(c1ccccc1)c1cccc(N2CCN(Cc3ccncc3)CC2)c1 (centres unmarked) [Compound 3-12] yielded IC50 of < 1000 nM

O=C(NO)C(c1ccccc1)c1cccc(OCc2ccccc2)c1 (centres unmarked) [Compound 2-6] yielded IC50 of < 1000 nM

CC(Oc1ccc(C(C(=O)NO)c2ccccc2)cc1)c1ccccc1 (centres unmarked) [Compound 3-59] yielded IC50 of < 1000 nM

O=C(CCC1CCCCC1)Nc1ccc(C(C(=O)NO)c2ccccc2)cc1 (centres unmarked) [Compound 2-70] yielded IC50 of < 1000 nM

---

Parameter pIC50: see the listing below.
study.target: one or more of HDAC-4, HDAC-5, HDAC-6, HDAC-7, HDAC-8, HDAC-9, HDAC-10 and HDAC-11
assay: Inhibition of histone deacetylase enzymatic activity (summary statement over isoforms)
cond: Table 3, selected examples; HDAC isoform not given
pIC50: −log10 of the molar value.

Cn1cncc1C#Cc1ccc(C(C(=O)NO)c2ccccc2)cc1 (centres unmarked) = > 6.00
O=C(NO)C(c1ccccc1)c1ccc(CCCCc2ccccc2)cc1 (centres unmarked) = > 6.00
O=C(NO)C(c1ccccc1)N1CCOCC1 (centres unmarked) [Compound 5-113b, N-hydroxy-2-morpholino-2-phenylacetamide] = 4.82 to 6.00
O=C(NO)C(c1ccccc1)c1cccc(OC/C=C/c2ccccc2)c1 (centres unmarked) = > 6.00
O=C(NO)C(Sc1ncccn1)c1ccccc1 (centres unmarked) = 4.82 to 6.00

Reported one or more of HDAC-4, HDAC-5, HDAC-6, HDAC-7, HDAC-8, HDAC-9, HDAC-10 and HDAC-11 pIC50 for item O=C(NO)C(c1ccccc1)c1ccc(N2CCN(c3cccc(C(F)(F)F)c3)CC2)cc1 (centres unmarked) was > 6.00

Reported one or more of HDAC-4, HDAC-5, HDAC-6, HDAC-7, HDAC-8, HDAC-9, HDAC-10 and HDAC-11 pIC50 for item O=C(NO)C(c1ccccc1)N1CCN(c2ncccn2)CC1 (centres unmarked) was > 6.00

Reported one or more of HDAC-4, HDAC-5, HDAC-6, HDAC-7, HDAC-8, HDAC-9, HDAC-10 and HDAC-11 pIC50 for item CCCCOc1ccc(C#Cc2ccc(C(C(=O)NO)c3ccccc3)cc2)cc1 (centres unmarked) was > 6.00

Reported one or more of HDAC-4, HDAC-5, HDAC-6, HDAC-7, HDAC-8, HDAC-9, HDAC-10 and HDAC-11 pIC50 for item CCCOc1ccc(OC(C(=O)NO)c2ccccc2)cc1 (centres unmarked) was 4.82 to 6.00

Reported one or more of HDAC-4, HDAC-5, HDAC-6, HDAC-7, HDAC-8, HDAC-9, HDAC-10 and HDAC-11 pIC50 for item COc1ccc2sc(SC(C(=O)NO)c3ccccc3)nc2c1 (centres unmarked) was > 6.00

Reported one or more of HDAC-4, HDAC-5, HDAC-6, HDAC-7, HDAC-8, HDAC-9, HDAC-10 and HDAC-11 pIC50 for item O=C(NO)C(c1ccccc1)N1CCc2[nH]c3ccc(F)cc3c2C1 (centres unmarked) was 4.82 to 6.00

Reported one or more of HDAC-4, HDAC-5, HDAC-6, HDAC-7, HDAC-8, HDAC-9, HDAC-10 and HDAC-11 pIC50 for item CCSc1ccc(-c2ccc(C(C(=O)NO)c3ccccc3)cc2)cc1 (centres unmarked) was > 6.00

Reported one or more of HDAC-4, HDAC-5, HDAC-6, HDAC-7, HDAC-8, HDAC-9, HDAC-10 and HDAC-11 pIC50 for item O=C(NO)C(c1ccccc1)c1ccc(OCc2cccc(Cl)c2)cc1 (centres unmarked) was > 6.00

---

study.target: one or more of HDAC-4, HDAC-5, HDAC-6, HDAC-7, HDAC-8, HDAC-9, HDAC-10 and HDAC-11
assay: Inhibition of histone deacetylase enzymatic activity (summary statement over isoforms)
cond: Table 3, selected examples; HDAC isoform not given
endpoint: IC50

// known answers, use as guide
Cc1noc(C)c1COc1ccc(C(C(=O)NO)c2ccccc2)cc1 (stereo not drawn) [Compound 3-51] = < 1 µM
O=C(NO)/C(=C/c1ccccc1)c1ccccc1 [Compound 1-21, (E)-N-hydroxy-2,3-diphenylacrylamide] = < 1 µM

Proceeding to the next molecule to report its IC50.
O=C(NO)C(Cc1ccccc1)c1ccccc1 (stereo not drawn) [Compound 1-11, N-hydroxy-2,3-diphenylpropanamide] yielded IC50 of 1 to 15 µM

---

study.target: one or more of HDAC-4, HDAC-5, HDAC-6, HDAC-7, HDAC-8, HDAC-9, HDAC-10 and HDAC-11
assay: Inhibition of histone deacetylase enzymatic activity (summary statement over isoforms)
cond: Table 3, selected examples; HDAC isoform not given
pIC50: −log10 of the molar value.
endpoint: pIC50

// known answers, use as guide
O=C(NO)C(Oc1ccc(C(F)(F)F)cc1)c1ccccc1 (stereo not shown) [Compound 7-44] = 4.82 to 6.00
O=C(NO)C(Sc1ccc2ccccc2c1)c1ccccc1 (stereo not shown) [Compound 5-28] = > 6.00
COc1cccc(C(C(=O)NO)c2ccc(N3CCOCC3)cc2)c1 (stereo not shown) [Compound 5-113] = > 6.00
O=C(Nc1ccc(C(C(=O)NO)c2ccccc2)cc1)c1ccccc1 (stereo not shown) [Compound 2-55] = > 6.00
CC(C)CCCOc1ccc(C(C(=O)NO)c2ccccc2)cc1 (stereo not shown) [Compound 3-56] = > 6.00

Reported one or more of HDAC-4, HDAC-5, HDAC-6, HDAC-7, HDAC-8, HDAC-9, HDAC-10 and HDAC-11 pIC50 for item O=C(NO)C(c1ccccc1)n1cc(CCc2ccccc2)nn1 (stereo not shown) [Compound 1-27] was 4.82 to 6.00

Reported one or more of HDAC-4, HDAC-5, HDAC-6, HDAC-7, HDAC-8, HDAC-9, HDAC-10 and HDAC-11 pIC50 for item O=C(NO)C(c1ccc(N2CCOCC2)cc1)c1cccc(O)c1 (stereo not shown) [Compound 6-23] was > 6.00

Reported one or more of HDAC-4, HDAC-5, HDAC-6, HDAC-7, HDAC-8, HDAC-9, HDAC-10 and HDAC-11 pIC50 for item CCCS(=O)(=O)Nc1cccc(C(C(=O)NO)c2ccccc2)c1 (stereo not shown) [Compound 2-87] was 4.82 to 6.00

Reported one or more of HDAC-4, HDAC-5, HDAC-6, HDAC-7, HDAC-8, HDAC-9, HDAC-10 and HDAC-11 pIC50 for item O=C(NO)C(c1ccccc1)c1ccc(O)cc1 (stereo not shown) [Compound 5-36] was > 6.00

Reported one or more of HDAC-4, HDAC-5, HDAC-6, HDAC-7, HDAC-8, HDAC-9, HDAC-10 and HDAC-11 pIC50 for item Cc1occc1SC(C(=O)NO)c1ccccc1 (stereo not shown) [Compound 2-46] was 4.82 to 6.00

---

study.target: one or more of HDAC-4, HDAC-5, HDAC-6, HDAC-7, HDAC-8, HDAC-9, HDAC-10 and HDAC-11
assay: Inhibition of histone deacetylase enzymatic activity (summary statement over isoforms)
cond: Table 3, selected examples; HDAC isoform not given
pIC50: −log10 of the molar value.
endpoint: pIC50

O=C(NO)C(c1ccccc1)c1ccc(N2CCOCC2)cc1 (centres unmarked) [Compound 5-22] = > 6.00
O=C(NO)C(c1ccccc1)c1ccc(OCCc2ccccc2)cc1 (centres unmarked) [Compound 2-12] = > 6.00
CCc1ccc(-c2ccc(C(C(=O)NO)c3ccccc3)cc2)cc1 (centres unmarked) [Compound 2-111] = > 6.00
O=C(NO)C(c1ccccc1)c1cccc(OCC2CCCCC2)c1 (centres unmarked) [Compound 3-32] = 4.82 to 6.00
CC(COc1ccc(C(C(=O)NO)c2ccccc2)cc1)CN(C)C (centres unmarked) [Compound 3-18] = 4.82 to 6.00
O=C(NO)C(Sc1ccccc1)c1ccc(-c2ccncc2)cc1 (centres unmarked) [Compound 5-116] = > 6.00
CCCCOc1cccc(C(C(=O)NO)c2ccccc2)c1 (centres unmarked) [Compound 2-5] = 4.82 to 6.00
CS(=O)(=O)c1ccc(-c2cccc(C(C(=O)NO)c3ccccc3)c2)cc1 (centres unmarked) [Compound 2-110] = > 6.00
O=C(NO)C(c1ccccc1)c1cccc(-c2ccc(Oc3ccccc3)cc2)c1 (centres unmarked) [Compound 2-100] = 4.82 to 6.00
CCCC(=O)N1CCN(C(C(=O)NO)c2ccccc2)CC1 (centres unmarked) [Compound 2-23] = 4.82 to 6.00

CN(C)CCN1CCN(c2ccc(C(C(=O)NO)c3ccccc3)cc2)CC1 (centres unmarked) [Compound 5-94] yielded pIC50 of > 6.00

O=C(NO)C(c1ccc(F)cc1)c1ccc(N2CCOCC2)cc1 (centres unmarked) [Compound 5-90] yielded pIC50 of > 6.00

O=C(NO)C(c1ccccc1)c1ccc(N2CCN(c3ccccc3)CC2)cc1 (centres unmarked) [Compound 5-26] yielded pIC50 of > 6.00

CN(C)c1ccc(C(C(=O)NO)c2ccc(O)cc2)cc1 (centres unmarked) [Compound 5-5] yielded pIC50 of > 6.00
